Data origin, for the record: patent US11987588B2

molecular target: Beta-3 Adrenergic Receptor (Homo sapiens (Human), UniProt P13945); assay: Homogeneous Time-Resolved Fluorescence (HTRF) cAMP antagonist assay, IC50 determination; settings: CHO-K1 cells stably expressing recombinant receptor, isoproterenol at EC90
Sequence (P13945 whole entry, species assumed): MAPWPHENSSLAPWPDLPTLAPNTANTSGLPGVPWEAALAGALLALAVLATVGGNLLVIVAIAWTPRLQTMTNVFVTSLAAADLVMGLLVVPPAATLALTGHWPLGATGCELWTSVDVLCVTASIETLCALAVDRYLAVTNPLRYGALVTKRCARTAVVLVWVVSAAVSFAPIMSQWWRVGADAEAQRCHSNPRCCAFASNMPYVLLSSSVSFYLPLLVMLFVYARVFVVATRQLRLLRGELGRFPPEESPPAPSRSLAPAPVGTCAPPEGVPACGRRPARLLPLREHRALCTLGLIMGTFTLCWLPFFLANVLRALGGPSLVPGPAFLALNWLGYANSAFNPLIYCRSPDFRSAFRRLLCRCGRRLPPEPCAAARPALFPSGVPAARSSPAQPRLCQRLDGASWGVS
Readout type: IC50 (µM)

Example results:
{"Molecule": "CNS(=O)(=O)c1cccc(OC[C@@H](O)CNC2COC3(CCN(S(=O)(=O)c4cc(C)ccc4C)CC3)C2)c1 (stereo partly shown) [Compound 154]", "Tested target": "Beta-3 Adrenergic Receptor (Homo sapiens (Human), UniProt P13945)", "IC50 / µM": 0.0344}
{"Molecule": "CNS(=O)(=O)c1cccc(OC[C@@H](O)CNC2COC3(CCN(S(=O)(=O)c4cccc(Oc5ccccc5)c4)CC3)C2)c1 (stereo partly shown) [Compound 124]", "Tested target": "Beta-3 Adrenergic Receptor (Homo sapiens (Human), UniProt P13945)", "IC50 / µM": 0.0362}
{"Molecule": "CONS(=O)(=O)c1cccc(OC[C@@H](O)CN[C@H]2COC3(CCN(S(=O)(=O)c4cnc5c(c4)N(C)CCO5)CC3)C2)c1 [Compound 451]", "Tested target": "Beta-3 Adrenergic Receptor (Homo sapiens (Human), UniProt P13945)", "IC50 / µM": 2.13}
{"Molecule": "CNS(=O)(=O)c1cccc(OC[C@@H](O)CNC2COC3(CCN(S(=O)(=O)c4ccc(Cl)s4)CC3)C2)c1 (stereo partly shown) [Compound 181]", "Tested target": "Beta-3 Adrenergic Receptor (Homo sapiens (Human), UniProt P13945)", "IC50 / µM": 0.0243}

P = CNS(=O)(=O)c1cccc(OC[C@@H](O)CNC2COC3(CCN(S(=O)(=O)c4cccc(-c5ccc(CNCCOC)cc5)c4)CC3)C2)c1 (stereo partly shown) [Compound 340]
Q = O=S(=O)(NC1CCOCC1)c1cccc(OC[C@@H](O)CNC2COC3(CCN(S(=O)(=O)c4ccc5ccccc5c4)CC3)C2)c1 (stereo partly shown) [Compound 50]
When the recorded IC50 values are compared, which is smaller: that of P or that of Q ? Identify your pick by its label.
P
